- tested-target: Tyrosine-protein phosphatase non-receptor type 1 (Homo sapiens, UniProt P18031)

[
  {
    "structure-string": "CC(C)C[C@H](NC(=O)[C@H](Cc1ccc(OC(C(=O)O)C(=O)O)cc1)NC(=O)[C@H](CCC(=O)O)NC(=O)OCC1c2ccccc2-c2ccccc21)C(N)=O",
    "unit-tag": "µM",
    "Ki": 29
  }
]

###

- tested-target: Secreted effector protein (Yersinia pestis, UniProt O68720)
- Sequence (O68720 whole entry): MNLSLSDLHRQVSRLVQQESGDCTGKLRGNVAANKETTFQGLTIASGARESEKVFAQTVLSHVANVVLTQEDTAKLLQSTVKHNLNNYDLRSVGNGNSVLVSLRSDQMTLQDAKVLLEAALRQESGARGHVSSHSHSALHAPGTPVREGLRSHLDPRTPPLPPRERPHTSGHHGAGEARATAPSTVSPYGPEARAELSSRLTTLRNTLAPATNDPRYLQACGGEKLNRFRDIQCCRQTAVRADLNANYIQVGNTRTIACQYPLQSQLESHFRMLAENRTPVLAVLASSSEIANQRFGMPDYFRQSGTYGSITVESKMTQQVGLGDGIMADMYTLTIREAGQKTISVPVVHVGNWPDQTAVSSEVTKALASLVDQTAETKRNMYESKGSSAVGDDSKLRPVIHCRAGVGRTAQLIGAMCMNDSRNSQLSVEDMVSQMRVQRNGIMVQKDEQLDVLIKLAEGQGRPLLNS
- experimental-protocol: Inhibition of Tyrosine phosphatase from Yersinia pestis expressed in Escherichia coli BL21 (DE3) cells
The compounds listed here are annotated with their IC50.
assay-metric: IC50 (µM)

[
  {
    "structure-string": "CC(C)C[C@H](NC(=O)[C@H](Cc1ccc(CC(=O)O)c(O)c1)NC(=O)[C@H](CCC(=O)O)NC(=O)OCC1c2ccccc2-c2ccccc21)C(N)=O",
    "assay-metric": "IC50",
    "unit-tag": "µM",
    "measurement-qualifier": ">",
    "value-observed": 800
  },
  {
    "structure-string": "CC(C)C[C@H](NC(=O)[C@H](Cc1ccc(C(F)(C(=O)O)C(=O)O)cc1)NC(=O)[C@H](CCC(=O)OCc1ccccc1)NC(=O)OCC1c2ccccc2-c2ccccc21)C(N)=O",
    "assay-metric": "IC50",
    "unit-tag": "µM",
    "measurement-qualifier": "=",
    "value-observed": 3.1
  },
  {
    "structure-string": "CC(C)C[C@H](NC(=O)[C@H](Cc1ccc(OC(C(=O)O)C(=O)O)cc1)NC(=O)[C@H](CCC(=O)OCc1ccccc1)NC(=O)OCC1c2ccccc2-c2ccccc21)C(N)=O",
    "assay-metric": "IC50",
    "unit-tag": "µM",
    "measurement-qualifier": "=",
    "value-observed": 82
  }
]

###

- tested-target: Tyrosine-protein phosphatase non-receptor type 1 (Homo sapiens)
- Sequence (P18031 whole entry): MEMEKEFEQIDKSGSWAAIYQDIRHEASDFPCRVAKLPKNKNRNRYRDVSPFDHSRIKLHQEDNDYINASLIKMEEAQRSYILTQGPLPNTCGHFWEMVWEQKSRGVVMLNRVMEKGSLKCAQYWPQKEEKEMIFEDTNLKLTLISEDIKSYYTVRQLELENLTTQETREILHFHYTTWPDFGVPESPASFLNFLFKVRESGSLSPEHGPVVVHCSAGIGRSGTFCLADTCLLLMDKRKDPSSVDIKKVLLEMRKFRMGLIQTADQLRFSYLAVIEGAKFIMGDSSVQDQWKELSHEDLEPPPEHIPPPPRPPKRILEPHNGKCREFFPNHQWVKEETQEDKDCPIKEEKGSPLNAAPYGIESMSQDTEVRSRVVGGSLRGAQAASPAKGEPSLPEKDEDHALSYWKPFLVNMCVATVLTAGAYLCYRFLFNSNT
Each entry below carries its recorded IC50.

[
  {
    "structure-string": "CC(C)C[C@H](NC(=O)[C@H](Cc1ccc(C(F)(C(=O)O)C(=O)O)cc1)NC(=O)[C@H](CCC(=O)O)NC(=O)OCC1c2ccccc2-c2ccccc21)C(N)=O",
    "IC50, nM": 700
  },
  {
    "structure-string": "CC(C)C[C@H](NC(=O)[C@H](Cc1ccc(CC(=O)O)c(O)c1)NC(=O)[C@H](CCC(=O)O)NC(=O)OCC1c2ccccc2-c2ccccc21)C(N)=O",
    "IC50, nM": 4000
  },
  {
    "structure-string": "CC(C)C[C@H](NC(=O)[C@H](Cc1ccc(C(F)(C(=O)O)C(=O)O)cc1)NC(=O)[C@H](CCC(=O)OCc1ccccc1)NC(=O)OCC1c2ccccc2-c2ccccc21)C(N)=O",
    "IC50, nM": 3100
  },
  {
    "structure-string": "CC(C)C[C@H](NC(=O)[C@H](Cc1ccc(OC(F)(C(=O)O)C(=O)O)cc1)NC(=O)[C@H](CCC(=O)OCc1ccccc1)NC(=O)OCC1c2ccccc2-c2ccccc21)C(N)=O",
    "IC50, nM": 1500
  },
  {
    "structure-string": "CC(C)C[C@H](NC(=O)[C@H](Cc1ccc(CC(=O)O)c(C(=O)O)c1)NC(=O)[C@H](CCC(=O)O)NC(=O)OCC1c2ccccc2-c2ccccc21)C(N)=O",
    "IC50, nM": 700
  },
  {
    "structure-string": "CC(C)C[C@H](NC(=O)[C@H](Cc1ccc(CC(=O)O)c(C(=O)O)c1)NC(=O)[C@H](CCC(=O)OCc1ccccc1)NC(=O)OCC1c2ccccc2-c2ccccc21)C(N)=O",
    "IC50, nM": 44000
  }
]

###

Listed here: molecules with reported IC50 for Tyrosine-protein phosphatase non-receptor type 1 (Homo sapiens).
Square brackets hold non-standard residues; d marks the D form. Peptide text beside a SMILES is read from it. * marks the point of attachment. F2Pmp = N[C@@H](Cc1ccc(C(F)(F)P(=O)(O)O)cc1)C(=O)O; Fmoc = O=C(OCC1c2ccccc2-c2ccccc21)*; OBn = c1ccc(CO*)cc1
assay-metric: IC50

[
  {
    "molecule": "CC(C)C[C@H](NC(=O)[C@H](Cc1ccc(OCC(=O)O)c(C(=O)O)c1)NC(=O)[C@H](CCC(=O)OCc1ccccc1)NC(=O)OCC1c2ccccc2-c2ccccc21)C(N)=O",
    "assay-metric": "IC50",
    "value-observed": "8.3 µM"
  },
  {
    "molecule": "CC(C)C[C@H](NC(=O)[C@H](Cc1ccc(OCC(=O)O)cc1)NC(=O)[C@H](CCC(=O)OCc1ccccc1)NC(=O)OCCc1ccccc1)C(N)=O",
    "assay-metric": "IC50",
    "value-observed": "58.2 µM"
  },
  {
    "molecule": "CC(C)C[C@H](NC(=O)[C@H](Cc1ccc(C(F)(F)P(=O)(O)O)cc1)NC(=O)[C@H](CCC(=O)OCc1ccccc1)NC(=O)OCC1c2ccccc2-c2ccccc21)C(N)=O (Fmoc-Glu(OBn)-[F2Pmp]-Leu-NH2)",
    "assay-metric": "IC50",
    "value-observed": "1.41 µM"
  },
  {
    "molecule": "CC(C)C[C@H](NC(=O)[C@H](Cc1ccc(OCC(=O)O)c(C(=O)O)c1)NC(=O)[C@H](CCC(=O)O)NC(=O)OCC1c2ccccc2-c2ccccc21)C(N)=O",
    "assay-metric": "IC50",
    "value-observed": "54.7 µM"
  },
  {
    "molecule": "CC(C)C[C@H](NC(=O)[C@H](Cc1ccc(OC(C(=O)O)C(=O)O)cc1)NC(=O)[C@H](CCC(=O)OCc1ccccc1)NC(=O)OCC1c2ccccc2-c2ccccc21)C(N)=O",
    "assay-metric": "IC50",
    "value-observed": "116 µM"
  },
  {
    "molecule": "CC(C)C[C@H](NC(=O)[C@H](Cc1ccc(C(C(=O)O)C(=O)O)cc1)NC(=O)[C@H](CCC(=O)O)NC(=O)OCC1c2ccccc2-c2ccccc21)C(N)=O",
    "assay-metric": "IC50",
    "value-observed": "0.8 µM"
  },
  {
    "molecule": "CC(C)C[C@H](NC(=O)[C@H](Cc1ccc(C(F)(F)C(=O)O)cc1)NC(=O)[C@H](CCC(=O)O)NC(=O)OCC1c2ccccc2-c2ccccc21)C(N)=O",
    "assay-metric": "IC50",
    "value-observed": "1.4 µM"
  }
]

###

Below, each of the compounds is paired with its reported pIC50 value.
- tested-target: Secreted effector protein (Yersinia pestis)
- experimental-protocol: Inhibition of Tyrosine phosphatase from Yersinia pestis expressed in Escherichia coli BL21 (DE3) cells
pIC50: −log10 of the molar value. Square brackets hold non-standard residues; d marks the D form. Peptide text beside a SMILES is read from it. * marks the point of attachment. F2Pmp = N[C@@H](Cc1ccc(C(F)(F)P(=O)(O)O)cc1)C(=O)O; Fmoc = O=C(OCC1c2ccccc2-c2ccccc21)*; OBn = c1ccc(CO*)cc1

[
  {
    "compound": "CC(C)C[C@H](NC(=O)[C@H](Cc1ccc(OCC(=O)O)c(C(=O)O)c1)NC(=O)[C@H](CCC(=O)O)NC(=O)OCC1c2ccccc2-c2ccccc21)C(N)=O",
    "pIC50": "< 4.00"
  },
  {
    "compound": "CC(C)C[C@H](NC(=O)[C@H](Cc1ccc(OC(C(=O)O)C(=O)O)cc1)NC(=O)[C@H](CCC(=O)O)NC(=O)OCC1c2ccccc2-c2ccccc21)C(N)=O",
    "pIC50": "< 3.10"
  },
  {
    "compound": "CC(C)C[C@H](NC(=O)[C@H](Cc1ccc(C(F)(F)P(=O)(O)O)cc1)NC(=O)[C@H](CCC(=O)OCc1ccccc1)NC(=O)OCC1c2ccccc2-c2ccccc21)C(N)=O (Fmoc-Glu(OBn)-[F2Pmp]-Leu-NH2)",
    "pIC50": 5.28
  }
]
